Biological target: T1, human NMI (N-myc Interacting protein), recombinant protein (human, UniProt Q13287 1-307, limits assumed)
T1 construct: Gene ID: 9111; also called hNMI; antigen
T1 sequence (looked up): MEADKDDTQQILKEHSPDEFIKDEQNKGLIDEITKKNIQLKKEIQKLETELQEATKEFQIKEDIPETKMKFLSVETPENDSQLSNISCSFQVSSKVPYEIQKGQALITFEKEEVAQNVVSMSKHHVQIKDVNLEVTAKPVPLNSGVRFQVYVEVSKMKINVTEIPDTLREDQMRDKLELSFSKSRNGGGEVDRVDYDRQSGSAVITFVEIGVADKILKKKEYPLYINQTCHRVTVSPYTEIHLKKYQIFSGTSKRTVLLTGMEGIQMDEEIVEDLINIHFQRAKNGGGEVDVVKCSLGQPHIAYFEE
Assay: sandwich ELISA; detection 94C4-1-biotin 1µg/mL; hNMI 195.313 pg/mL
Observation Type: OD450 (OD450)
Report as a plain number; the unit OD450 is understood.

Some entries whose results are on file:
{"Binder": "monoclonal antibody 98G10 (antibody, V domains shown, Rabbit monoclonal antibody) VH: QEQLEESGGDLVKPEGSLTLTCTASGFSFSASYWICWVRQAPGKGLEWIACIYGGSSGSAYYASWAKGRFTISKTSSTTVTLQMTSLTAADTATYFCARAGYYNYGSAGDIYPSSFKLWGPGTLVTVSS VL: DIVMTQTPASVEAAVGGTVTINCQASQSISTALAWYQQKPGQPPKLLIYTASKVASGVPSRFSGSGSGTQFTLTISDLECADAATYYCQNYYYSSSSITFGGGTEVVVK", "OD450 / OD450": 0.179}
{"Binder": "monoclonal antibody B-8 (antibody, V domains shown, Rabbit monoclonal antibody; also called B8-1) VH: QSLEESGGDLVKPGASLTLTCTASGFSFSSSYYMCWVRQAPGKGLEWIACIYAGSSGSTYYASWAKGRFTISKTSSTTVTLQMTSLTAADTATYFCAREYSYDDYGDFWGFNLWGPGTLVTVSS VL: ALVMTQTPSSVSAAVGGTVTINCQASQNIYTNLAWYQQKPGQPPKLLIYGASNLESGVPSRFKGSGSGTEYTLTISDLECDDAATYYCQSSLYSRIADRANAFGGGTEVVVK", "OD450 / OD450": 0.173}

Measured OD450 of monoclonal antibody 39B4 (antibody, V domains shown, Rabbit monoclonal antibody; also called 39B4-1) VH: QEQLVESGGGLVQPEGSLTLTCTASGFSFSSSYWICWVRQAPGKGLEWIACIYAGTSGSTYYASWAKGRFTISKTSSTTVDLQMNSLTAADTATYFCARAGYYTYGAGVYIYPSSFKLWGPGTLVTVSS VL: DVVMTQTPASVEAAVGGTVTIKCQASESIGNALAWYQQKPGQPPKLLIYSASNLASGVPSRFSGSGSGTQFTLTISDLECADAATYYCQSYYYSSSSITFGGGTEVVVK : 0.207
